- targetEntity: T1, rat PTH1R on UMR106 cells (rat, UniProt P25961 27-591)
- T1 sequence (looked up): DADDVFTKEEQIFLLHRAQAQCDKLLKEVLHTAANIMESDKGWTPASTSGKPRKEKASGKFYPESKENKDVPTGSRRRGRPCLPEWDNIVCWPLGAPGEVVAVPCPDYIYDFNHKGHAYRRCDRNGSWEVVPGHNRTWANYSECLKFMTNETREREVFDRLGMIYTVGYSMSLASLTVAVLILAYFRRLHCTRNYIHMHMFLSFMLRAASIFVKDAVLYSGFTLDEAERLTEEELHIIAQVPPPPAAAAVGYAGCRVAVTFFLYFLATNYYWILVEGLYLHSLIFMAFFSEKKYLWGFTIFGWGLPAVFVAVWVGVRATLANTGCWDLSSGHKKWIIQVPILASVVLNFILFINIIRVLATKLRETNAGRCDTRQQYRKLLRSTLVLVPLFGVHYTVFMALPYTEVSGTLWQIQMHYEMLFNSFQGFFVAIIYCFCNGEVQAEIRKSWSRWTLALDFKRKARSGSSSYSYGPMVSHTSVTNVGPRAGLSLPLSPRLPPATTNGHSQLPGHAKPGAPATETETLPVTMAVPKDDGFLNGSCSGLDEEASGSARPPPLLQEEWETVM
- runDescription: cell-based or functional assay
Consider the following binders; for each one, report its EC50 of PTH(1-34), cAMP assay, with 267 nM IgG.
Just the number please, in nM, no unit attached.

In: Quick one: EC50 of PTH(1-34), cAMP assay, with 267 nM IgG for XPA.85.341 (antibody, V domains shown, Light-chain-shuffled variant of XPA.85.017) VH: EVQLVETGGGVVRPGGSLRLSCAASGFTFSSSAMSWVRQTPGKELQWVSAITPGGEGTYYADVVKGRFTISRDNSKDTLYLQMDSLRAEDTAVYYCARDLYGSYGDAFDIWGQGTLVTVSS VL: SYELTQPSSVSVSPGQTASITCSGDKLGEKYASWYQQKPGQSPVLVMFEDTKRPSGIPERFSGSNSGNTATLTISGTQAEDEADYYCQAWDSSWVFGGGTQLTVL ?
Out: 13.7

In: Consider next the binder XPA.85.337 (antibody, V domains shown, Light-chain-shuffled variant of XPA.85.017) VH: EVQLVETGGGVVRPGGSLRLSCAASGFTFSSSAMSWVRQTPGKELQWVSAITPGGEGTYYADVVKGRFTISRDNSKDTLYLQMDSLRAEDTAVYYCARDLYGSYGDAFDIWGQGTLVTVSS VL: SYVLTQPPSVSVAPGQTATITCSGDDFGDKYVSWYQQKPGQSPLLVIFQDNERPSGIPERFSGSNSGNTATLTISGTQAMDEADYYCQAWDSNWVFGGGTKVTVL in the same way.
Out: 2.88
